Test system: SF-539 CNS
Assay: NCI tumour cell line growth inhibition, 48 h
Quick list: TGI per entry.
experimental readout: TGI

COc1cc(Nc2nc3c(N)cc(C(F)(F)F)cc3nc2-c2ccccc2)cc(OC)c1OC :: > 74 µM
O=C(N/N=C\c1c(O)ccc2ccccc12)c1ccncc1 :: 8.2 µM
COc1ccc(CN=C2N/C(=C\c3ccccc3Cl)C(=O)N2C)cc1 :: 72.7 µM

* * *

Quick list: TGI per entry.
Tested on: A549 NSCLC
Assay: NCI tumour cell line growth inhibition, 48 h
Where a SMILES comes first, the peptide text is derived from it. [ ]: non-standard residue; d: D form. The star is where a group is joined. Nle = CCCC[C@H](N)C(=O)O; Cbz = O=C(OCc1ccccc1)*
experimental readout: TGI

O=S(CCc1ccccc1)Nc1ccccc1 (stereo unspecified) :: > 100 µM
N#Cc1nnc2ccccc2c1N :: > 100 µM
CCSc1nc2[nH]c(=S)[nH]c(=S)c2c(-c2ccc(OC)c(OC)c2)c1C#N :: > 50 µM
CCCC[C@@H](C=O)NC(=O)[C@H](CC(C)C)NC(=O)[C@H](CC(C)C)NC(=O)OCc1ccccc1 (Cbz-Leu-Leu-[Nle]-aldehyde) :: 12.2 µM
CCc1nc(N)nc(N)c1-c1ccc2c(c1)nnn2CCc1ccccc1 :: > 100 µM
CCOC(=O)C(NC(=O)c1ccccc1)(Nc1cc(C)on1)C(F)(F)F (stereo unspecified) :: > 100 µM
CC(=O)c1c(C)cn(S(=O)(=O)NC(=O)Nc2nncs2)c1C :: > 100 µM
COC(=O)CCC(NC(=S)N/N=C(\C)c1ccco1)C(=O)OC (stereo unspecified) :: > 100 µM
Clc1ccc(-c2noc(CN3CCCCC3)n2)cc1 :: > 100 µM
O=C(/C=C/c1cccc2ccccc12)c1ccccc1 :: > 52.4 µM
CCCCC1C=Cn2c(=O)oc3c(OC(C)C)c(OC(C)C)c(O)c1c32 (stereo unspecified) :: 46.6 µM

* * *

Quick list: GI50 per entry.
Test system: HOP-92 NSCLC
Where a SMILES comes first, the peptide text is derived from it. [ ]: non-standard residue; d: D form. The star is where a group is joined. Nle = CCCC[C@H](N)C(=O)O; Cbz = O=C(OCc1ccccc1)*
experimental readout: GI50

COc1ccc(/C=C/C(=O)c2ccc(NC(=O)CSc3nnc(-c4ccc(OC)c(OC)c4)n3-c3ccccc3)cc2)cc1 :: 1560 nM
CCCC[C@@H](C=O)NC(=O)[C@H](CC(C)C)NC(=O)[C@H](CC(C)C)NC(=O)OCc1ccccc1 (Cbz-Leu-Leu-[Nle]-aldehyde) :: 2090 nM
COC(=O)c1ccc2[nH]c(O)c(C(=Nc3ccc(N(C)C(=O)CN4CCN(C)CC4)cc3)c3ccc(OC)cc3)c2c1 :: 3700 nM
Clc1nc(Cl)c2ncn(CC#CCn3cnc4c(Cl)nc(Cl)nc43)c2n1 :: 2210 nM

* * *

System: HT29 colon
Labels: yes = active, no = inactive

c1ccc(N2CCN(CN3CCN(c4ccccc4)C3)C2)cc1 :: no
CC(=O)N1CCN([C@H]2CCC[C@@H](NC(=O)c3cc4c(F)ccc(C)c4[nH]3)C2)CC1 :: no
Clc1ccc(-c2ccc(CNCC3CCNCC3)o2)c(-c2ccccc2)c1 :: no
CC(C)OC(=O)Nc1ccc(-c2nc(-c3cccc(OCCN4CCOCC4)c3)c(-c3ccnc(Br)c3)[nH]2)cc1 :: no
CC[C@H](Nc1cc(C)nc(N)n1)c1nc2cccc(NCc3ccc(C(=O)NO)cc3)c2c(=O)n1-c1ccccc1 :: no
COc1ccc(C(O)c2cc3c(N)c(C(=O)Nc4ccc(Br)cc4)sc3nc2C)cc1 (stereo unspecified) :: no
O=C(/C=C/c1cccc(O)c1)c1cccc(-n2cc(-c3ccc(Cl)cc3)[nH]c2=O)c1 :: no
COc1cccc2c(Nc3ccc(C(=O)O)cc3)cc(-c3ccccc3)nc12 :: no
C=CC(=O)N1CC2(CCC(n3nc(-c4ccc(Oc5ccccc5)cc4)c4c(N)ncnc43)CC2)C1 :: yes
Cc1ccc2c(c1)c(C1=C(c3cn(C)c4ccccc34)C(=O)NC1=O)cn2C :: no
Cc1ccc2cc3c(N)c4c(C)ccc(C)c4nc3nc2c1 :: no
CCC[CH2][Sn]1([CH2]CCC)[O]CC(c2ccccn2)C[O]1 :: no
Nc1nonc1-c1nc2cnccc2n1C1CCCCC1 :: no
C=CCSSC1N=CNc2nc[nH]c21 (stereo unspecified) :: no
CCOC(=O)c1ccc2c(c1)c1c(C)c3cnccc3c(C)c1n2C :: yes
Cc1nc2ccccn2c1NC(=O)NNC(=S)Nc1ccc(Cl)cc1 :: no
